- System: Streptococcus faecalis
- method summary: agar plate paper-disc inhibition zone screening
- Format: cell-based
- condition label: Enterococcus faecalis; Dose 0.5 mg/ml; read-out: Inhibition Zone Diameter mm (Dose mg/ml) S. Faecalis
Each entry below carries its recorded zone of inhibition at 500 µg/mL.
property measured: zone of inhibition at 500 µg/mL (mm)

mol	measurement
CCN(CC)CCn1nc2c3c(c(NCCN4CCOCC4)ccc31)C(=O)c1ccccc1-2	14
CCN(CC)CCNc1cccc2c1C(=O)c1cccc3c1c-2nn3CCN(CC)CC	15
CCN(CC)CCNc1ccc2c3c(nn2CCNCCO)-c2ccccc2C(=O)c13	15
CCN(CC)CCNc1ccc2c3c(nn2CCN(CC)CC)-c2ccccc2C(=O)c13	14
CCN(CC)CCNc1ccc2c3c(nn2CCN(CC)CC)-c2c(O)ccc(O)c2C(=O)c13	14
CN(C)CCNc1ccc2c3c(nn2CCNCCO)-c2ccccc2C(=O)c13	15
CCN(CC)CCn1nc2c3c(cccc31)C(=O)c1c(NCCNCCO)cccc1-2	16
CNc1ccc2c3c(nn2CCNCCO)-c2ccccc2C(=O)c13	15
CCN(CC)CCn1nc2c3c(c(NCCN)ccc31)C(=O)c1ccccc1-2	17
CCN(CC)CCn1nc2c3c(c(NCCNCCO)ccc31)C(=O)c1ccccc1-2	15

###

- Test system: lymphocytic leukemia P388
- method summary: in vivo lymphocytic leukemia P388 test
- Parameters: species or system mice
- condition label: Mus musculus, P388, ip, 720 h, P388, Dose 0.78 mg/kg intraperitoneally, two single doses four days apart; read-out: T/C × 100 (Percent)
property measured: response vs control in vivo at 0.78 mg/kg (%)

compound	measurement
CCN(CC)CC(O)Cn1nc2c3c(c(NCCNCCO)ccc31)C(=O)c1c(O)ccc(O)c1-2 (stereo not drawn)	132
NCCNc1ccc2c3c(nn2CCNCCO)-c2c(O)ccc(O)c2C(=O)c13	182
CCN(CC)CCn1nc2c3c(c(NCCNCCO)ccc31)C(=O)c1c(O)ccc(O)c1-2	140
CN(C)CCn1nc2c3c(c(NCCNCCO)ccc31)C(=O)c1c(O)ccc(O)c1-2	161
CCN(CC)CCn1nc2c3c(c(NCCNCCO)ccc31)C(=O)c1ccccc1-2	135
CN(C)CCNc1ccc2c3c(nn2CCNCCO)-c2c(O)ccc(O)c2C(=O)c13	152

###

- Tested on: Aerobacter aerogenes
- method summary: agar plate paper-disc inhibition zone screening
- Type: cell-based
- condition label: Klebsiella aerogenes; Dose 0.5 mg/ml; read-out: Inhibition Zone Diameter mm (Dose mg/ml) A. Aerogenes
property measured: zone of inhibition at 500 µg/mL (mm)

compound	target or test system	property measured	measurement
CCN(CC)CCn1nc2c3c(c(Cl)ccc31)C(=O)c1ccccc1-2 [H; Cl*; (CH2)2NEt2]	Aerobacter aerogenes	zone of inhibition at 500 µg/mL	14
CCN(CC)CCNc1ccc2c3c(nn2CCO)-c2ccccc2C(=O)c13 [Example 13]	Aerobacter aerogenes	zone of inhibition at 500 µg/mL	20
CCN(CC)CCNc1ccc2c3c(nn2C)-c2ccccc2C(=O)c13 [Example 10]	Aerobacter aerogenes	zone of inhibition at 500 µg/mL	17
CCN(CC)CCNc1cccc2c1C(=O)c1cccc3c1c-2nn3CCN(CC)CC [Example 80]	Aerobacter aerogenes	zone of inhibition at 500 µg/mL	16
CCN(CC)CCn1nc2c3c(c(NCCNC)ccc31)C(=O)c1c(O)ccc(O)c1-2 [Example 31]	Aerobacter aerogenes	zone of inhibition at 500 µg/mL	16
O=C1c2ccccc2-c2n[nH]c3ccc(NCCNCCO)c1c23 [Example 19]	Aerobacter aerogenes	zone of inhibition at 500 µg/mL	18
CCN(CC)CCNc1ccc2c3c(nn2CCNCCO)-c2c(O)ccc(O)c2C(=O)c13 [Example 57]	Aerobacter aerogenes	zone of inhibition at 500 µg/mL	14
CCN(CC)CCNc1ccc2c3c(nn2CCNCCO)-c2ccccc2C(=O)c13 [Example 23]	Aerobacter aerogenes	zone of inhibition at 500 µg/mL	18
CCN(CC)CCn1nc2c3c(c(NCCN)ccc31)C(=O)c1ccccc1-2 [Example 3]	Aerobacter aerogenes	zone of inhibition at 500 µg/mL	14
O=C1c2ccccc2-c2nn(CCNCCO)c3ccc(Cl)c1c23 [H; Cl*; (CH2)2NH(CH2)2OH]	Aerobacter aerogenes	zone of inhibition at 500 µg/mL	18
CN(C)CCn1nc2c3c(c(NCCN)ccc31)C(=O)c1c(O)ccc(O)c1-2 [Example 33]	Aerobacter aerogenes	zone of inhibition at 500 µg/mL	14
CCN(CC)CCNc1ccc2c3c(nn2CCN(CC)CC)-c2ccccc2C(=O)c13 [Example 1]	Aerobacter aerogenes	zone of inhibition at 500 µg/mL	19
Cn1nc2c3c(c(NCCNCCO)ccc31)C(=O)c1ccccc1-2 [Example 11]	Aerobacter aerogenes	zone of inhibition at 500 µg/mL	17
CCN(CC)CC(O)Cn1nc2c3c(c(NCCN)ccc31)C(=O)c1c(O)ccc(O)c1-2 (stereo not drawn) [Example 45]	Aerobacter aerogenes	zone of inhibition at 500 µg/mL	15
CCN(CC)CCn1nc2c3c(c(NCCNCCO)ccc31)C(=O)c1ccccc1-2 [Example 2]	Aerobacter aerogenes	zone of inhibition at 500 µg/mL	18
CN(C)CCNc1ccc2c3c(nn2CCNCCO)-c2c(O)ccc(O)c2C(=O)c13 [Example 56]	Aerobacter aerogenes	zone of inhibition at 500 µg/mL	14
O=C1c2ccccc2-c2nn(CCO)c3ccc(NCCNCCO)c1c23 [Example 12]	Aerobacter aerogenes	zone of inhibition at 500 µg/mL	14
CN(C)CCN(C)c1ccc2c3c(nn2CCNCCO)-c2c(O)ccc(O)c2C(=O)c13 [Example 65]	Aerobacter aerogenes	zone of inhibition at 500 µg/mL	16

###

- System: Escherichia coli
- method summary: agar plate paper-disc inhibition zone screening
- Format: cell-based
- condition label: Dose 1.0 mg/ml, read-out: Inhibition Zone Diameter mm (Dose mg/ml) E. Coli

compound	units	zone of inhibition at 1000 µg/mL
COCCn1nc2c3c(c(NCCNCCO)ccc31)C(=O)c1c(O)ccc(O)c1-2 [Example 76]	mm	14
O=C1c2c(O)ccc(O)c2-c2nn(CCNCCO)c3ccc(NCCNCCO)c1c23 [Example 54]	mm	14
CN1CCN(c2ccc3c4c(nn3CCNCCO)-c3c(O)ccc(O)c3C(=O)c24)CC1 [Example 64]	mm	14
NCCNc1ccc2c3c(nn2CCNCCO)-c2c(O)ccc(O)c2C(=O)c13 [Example 55]	mm	14
CN(C)CCn1nc2c3c(c(Cl)ccc31)C(=O)c1c(O)ccc(O)c1-2 [7,10-(OH)2; Cl*; (CH2)2NMe2]	mm	14
CN(C)CCNc1ccc2c3c(nn2CCNCCO)-c2ccccc2C(=O)c13 [Example 25]	mm	15

###

Entries and their measured zone of inhibition at 3000 µg/mL follow.
- System: Bacillus subtilis
- method summary: agar plate paper-disc inhibition zone screening
- Assay type: cell-based
- condition label: Dose 3.0 mg/ml, read-out: Inhibition Zone Diameter mm (Dose mg/ml) B. Subtilis

molecule	units	zone of inhibition at 3000 µg/mL
CN(C)CCCn1nc2c3c(c(NCCNCCO)ccc31)C(=O)c1c(O)ccc(O)c1-2	mm	0
CCN(CC)CCNc1ccc2c3c(nn2CC(O)CN(CC)CC)-c2c(O)ccc(O)c2C(=O)c13 (centres unmarked)	mm	15
CN(C)CCCn1nc2c3c(c(NCCCN)ccc31)C(=O)c1c(O)ccc(O)c1-2	mm	14
O=C1c2cccc(O)c2-c2nn(CCNCCO)c3ccc(NCCNCCO)c1c23	mm	14
NCCn1nc2c3c(c(Cl)ccc31)C(=O)c1ccccc1-2	mm	14
O=C1c2c(O)ccc(O)c2-c2nn(CCNCCO)c3ccc(NCCNCCO)c1c23	mm	14
O=C1c2c(O)ccc(O)c2-c2nn(CCNCCO)c3ccc(Cl)c1c23	mm	0
CN(C)CCNCCn1nc2c3c(c(Cl)ccc31)C(=O)c1c(O)ccc(O)c1-2	mm	14
NCCCCNc1ccc2c3c(nn2CCNCCO)-c2c(O)ccc(O)c2C(=O)c13	mm	0
CN(C)CCCn1nc2c3c(c(NCCN)ccc31)C(=O)c1c(O)ccc(O)c1-2	mm	0
CN(C)CCNCCNc1ccc2c3c(nn2CCNCCO)-c2c(O)ccc(O)c2C(=O)c13	mm	18
NCCCCCNc1ccc2c3c(nn2CCNCCO)-c2c(O)ccc(O)c2C(=O)c13	mm	0
CN(C)CCNCCNc1ccc2c3c(nn2CCCN)-c2c(O)ccc(O)c2C(=O)c13	mm	15
NCCNc1ccc2c3c(nn2CCNCCO)-c2c(O)ccc(O)c2C(=O)c13	mm	14
CN(C)CCNc1ccc2c3c(nn2CCO)-c2c(O)ccc(O)c2C(=O)c13	mm	0
COCCn1nc2c3c(c(NCCN)ccc31)C(=O)c1c(O)ccc(O)c1-2	mm	16
O=C1c2c(O)ccc(O)c2-c2nn(CCO)c3ccc(NCCNCCO)c1c23	mm	17
